Test Conditions: in THF, 303.15 K

Smiles Structure: O=C1O[B-]2(OC1=O)OC(=O)C(=O)O2.[Li+]
solubility (mole fraction): 0.0336

###

Test Conditions: in propylene carbonate, 353.15 K

Smiles Structure: O=C1O[B-]2(OC1=O)OC(=O)C(=O)O2.[Li+]
solubility (mole fraction): 0.00218

###

Test Conditions: in DMF, 353.15 K
Quantity Name: solubility (mole fraction)

Smiles Structure: O=C1O[B-]2(OC1=O)OC(=O)C(=O)O2.[Li+]
Quantity Name: solubility (mole fraction)
Experimental Result: 0.0323

###

Test Conditions: in DMSO, 303.15 K

Smiles Structure: O=C1O[B-]2(OC1=O)OC(=O)C(=O)O2.[Li+]
solubility (mole fraction): 0.139

###

Test Conditions: in acetonitrile, 323.15 K
Quantity Name: solubility (mole fraction)

Smiles Structure: O=C1O[B-]2(OC1=O)OC(=O)C(=O)O2.[Li+]
Experimental Result: 0.00653

###

Test Conditions: in gamma-butyrolactone, 333.15 K

Smiles Structure: O=C1O[B-]2(OC1=O)OC(=O)C(=O)O2.[Li+]
solubility (mole fraction): 0.0248

###

Test Conditions: in gamma-butyrolactone, 303.15 K

Smiles Structure: O=C1O[B-]2(OC1=O)OC(=O)C(=O)O2.[Li+]
solubility (mole fraction): 0.0796

###

Test Conditions: in gamma-butyrolactone, 293.15 K

Smiles Structure: O=C1O[B-]2(OC1=O)OC(=O)C(=O)O2.[Li+]
solubility (mole fraction): 0.1

###

Test Conditions: in DMF, 293.15 K

Smiles Structure: O=C1O[B-]2(OC1=O)OC(=O)C(=O)O2.[Li+]
solubility (mole fraction): 0.114

###

Test Conditions: in DMF, 363.15 K
Quantity Name: solubility (mole fraction)

Smiles Structure: O=C1O[B-]2(OC1=O)OC(=O)C(=O)O2.[Li+]
Experimental Result: 0.023

###

Test Conditions: in acetonitrile, 333.15 K
Quantity Name: solubility (mole fraction)

Smiles Structure: O=C1O[B-]2(OC1=O)OC(=O)C(=O)O2.[Li+]
Experimental Result: 0.00566

###

Test Conditions: in DMSO, 343.15 K
Quantity Name: solubility (mole fraction)

Smiles Structure: O=C1O[B-]2(OC1=O)OC(=O)C(=O)O2.[Li+]
Quantity Name: solubility (mole fraction)
Experimental Result: 0.0869

###

Test Conditions: in THF, 333.15 K

Smiles Structure: O=C1O[B-]2(OC1=O)OC(=O)C(=O)O2.[Li+]
solubility (mole fraction): 0.0172

###

Test Conditions: in DMSO, 363.15 K

Smiles Structure: O=C1O[B-]2(OC1=O)OC(=O)C(=O)O2.[Li+]
solubility (mole fraction): 0.0666

###

Test Conditions: in DMSO, 333.15 K

Smiles Structure: O=C1O[B-]2(OC1=O)OC(=O)C(=O)O2.[Li+]
solubility (mole fraction): 0.0989

###

Test Conditions: in THF, 323.15 K

Smiles Structure: O=C1O[B-]2(OC1=O)OC(=O)C(=O)O2.[Li+]
solubility (mole fraction): 0.0217

###

Test Conditions: in DMF, 303.15 K
Quantity Name: solubility (mole fraction)

Smiles Structure: O=C1O[B-]2(OC1=O)OC(=O)C(=O)O2.[Li+]
Experimental Result: 0.0838

###

Test Conditions: in DMSO, 323.15 K
Quantity Name: solubility (mole fraction)

Smiles Structure: O=C1O[B-]2(OC1=O)OC(=O)C(=O)O2.[Li+]
Experimental Result: 0.113

###

Test Conditions: in propylene carbonate, 323.15 K

Smiles Structure: O=C1O[B-]2(OC1=O)OC(=O)C(=O)O2.[Li+]
solubility (mole fraction): 0.0214

###

Test Conditions: in propylene carbonate, 333.15 K
Quantity Name: solubility (mole fraction)

Smiles Structure: O=C1O[B-]2(OC1=O)OC(=O)C(=O)O2.[Li+]
Quantity Name: solubility (mole fraction)
Experimental Result: 0.0106

###

Test Conditions: in THF, 313.15 K

Smiles Structure: O=C1O[B-]2(OC1=O)OC(=O)C(=O)O2.[Li+]
solubility (mole fraction): 0.0269

###

Test Conditions: in acetonitrile, 303.15 K

Smiles Structure: O=C1O[B-]2(OC1=O)OC(=O)C(=O)O2.[Li+]
solubility (mole fraction): 0.00869
